System: K4 kissing-loop RNA reporter
Test: apparent KD of K4 kissing-loop reporter; higher = weaker reporter binding
Settings: Eterna round: R107; input ligand: none
Outcome: 1 for apparent KD of K4 kissing-loop reporter of at least 200 nM; 0 for anything lower.

State whether the measured apparent KD of K4 kissing-loop reporter reaches 200 nM, counting equality as reaching it, for UAUAGAGUGACGGCCGCCACUAUUGUGAUUUAAUUGUUAGAGUGAUGUUUUGAUGUUUGAUUUUGUAGGACCGGGUUAUAUGUUA [wwwzmullin] 1

State whether the measured apparent KD of K4 kissing-loop reporter reaches 200 nM, counting equality as reaching it, for GGCAGUGAUGUUGCCAGUGGCAGAUGCGAAGGAGCGCAGUGAGAUGCAGGUAGGUCGCGCAUUGAAAUUGCUGUCACUAAAAUGC [#2] 1

State whether the measured apparent KD of K4 kissing-loop reporter reaches 200 nM, counting equality as reaching it, for UGUAUGGACUGAAGGAGCGCUAGGUAUGUGAGUGAUGUUCAUAUAAAUGUAUAAAGGGUUUGGCAGGUAGGUCGCAGUCCAUACU [KL-SSArg B6] 1

State whether the measured apparent KD of K4 kissing-loop reporter reaches 200 nM, counting equality as reaching it, for AAGUGAUGUUGUAGUGAUGUUGUGAUGUUGCAGGAUAUAUAGUGAUGUAGAAGGGUAAGUACUUAUUUUUUUUUUGAGUUAUGUU [crrczrmullin] 0

State whether the measured apparent KD of K4 kissing-loop reporter reaches 200 nM, counting equality as reaching it, for GGAUGGUAGGCGGCCGCCACUAAAACUGAACACAUACAAACCAGUGAUGUUGGUAUGAUGAAGUAUAGGACCGGGCCUAGAUAGA [Exclusion - Tryptophan B (Freestyle 2)] 1

State whether the measured apparent KD of K4 kissing-loop reporter reaches 200 nM, counting equality as reaching it, for UUUUUAAUCGCAGAUACCAGUCCAGAAUGAAUACUAUAGUGAUGUUAUAAUAAAGGGAAGGACCCUUGGCAGCUGUAAUAUAUUU [AstrosSsTheB#5] 1

State whether the measured apparent KD of K4 kissing-loop reporter reaches 200 nM, counting equality as reaching it, for AAAUAAAGCAGUCAUCCAGUGAUGUUGGAAGGAGCGUGCGAAAGCACAGGUAGGUCGCCAAAACCUAAUAAUGGCUGCUAAAUAA [#SwitchBubble 2 #K4Early] 0

State whether the measured apparent KD of K4 kissing-loop reporter reaches 200 nM, counting equality as reaching it, for GCUACCUAUGCAGGAUAUGGUAUUACGAGUGAUGUUCGAGGCAUAUAGAGUGAUGUUCUAUAUCCACCAGAAGGGCAUAGGUAGC 0

State whether the measured apparent KD of K4 kissing-loop reporter reaches 200 nM, counting equality as reaching it, for CGCGUGGGUUUGAGAGGGUUUGUGCGAAGUGAGGAUAUUUAGGGAGAAAGAAGGCACUAUAAAAUAUAGUGAUGUUAUAUAAGGG [SSFMNA.K] 1

State whether the measured apparent KD of K4 kissing-loop reporter reaches 200 nM, counting equality as reaching it, for CGACUAUUUCGAUAGUCGAUAGACACGGAAGGAGCGGGAUUCGUCCCAGGUAGGUCGCCGUGAAGUUGAGUGAUGUUCAACGUGU [Arg A SS t13] 0

State whether the measured apparent KD of K4 kissing-loop reporter reaches 200 nM, counting equality as reaching it, for UGACUGGAUUGAAGGAGCGCUAAACUCCUAGUGAUGUUAGGGACACAAGACAAAGUCUUGAGGCAGGUAGGUCGCAAUCUAGUCU [FiskerMod 5 - Jieux - Same State - Arginine B] 1

State whether the measured apparent KD of K4 kissing-loop reporter reaches 200 nM, counting equality as reaching it, for AGUCUCAAAAGAGGCAGCACUCACGAGGACAAGGAUAUCAUCUCAAUGAGAAGGUGUCCUCGUCCCUAGUGAUGUUAGGGAGUGC [Omei KL FMN A SS E v6] 1

State whether the measured apparent KD of K4 kissing-loop reporter reaches 200 nM, counting equality as reaching it, for UGUCGAGUGAUGUUCGAUGUGGUGCAUGCAGAGGAUAUAGGGUGGGCUAGAAGGCUGAAAAGUGCUUCGAGUGAUGUUCGAAGAU [Exclusion FMN A GF9] 0

###

Test system: K4 kissing-loop RNA reporter
Experiment: apparent KD of K4 kissing-loop reporter; higher = weaker reporter binding
Conditions: Eterna round: R107; input ligand: tryptophan 2.4 mM
observed.property: apparent KD of K4 kissing-loop reporter
Don't forget the unit after the value.

Examples from the recorded data:
# primary.sequence, apparent KD of K4 kissing-loop reporter
records = [
    ("UUAGAGAUCUCAGGAUAUCAGUGAUGUUGGUGUGAAGAUCUGAGAUAGAAUUCUAUCUCAGAUCAAUGAGAAGGGAGAUCUCAUU [AK3.1 Exc FMN B]", "168 nM"),
    ("GGAUAGGACAGAGGAUAUCCUGAGUCUACAAAGUAGGCUCAUAAAGGAUGAAUCCUAGUGAUGUUAGGAGAAGGCUGUCCUAUCG [FmnBX 16 - #SwitchBubble #StaticStem #Palindromic]", "88.7 nM"),
    ("UAGCAUUUGCUCGAGUGAUGUUCGAGCGAAGGAGCGCGAGAAAUCGCAGGUAGGUCGCGCUCGAACUAUGAGCGAUCAUUUAUUA [Arg A Ex t2c]", "370 nM"),
]

Please find the next sequence below.
# get_value(readout='apparent KD of K4 kissing-loop reporter', item= GUGGGCAUAGCAGGAUAUCCAUAUUAACAGGAGUCCUCGCCAGUGAUGUUGGAAAGGUACCGGAGUGGAGAAGGGCUCCUACGUA [Anbiratien] ) 515 nM

###

Test system: MS2 coat protein
Test: apparent KD of MS2 coat protein, switch OFF state (with FMN for OFF switches, without FMN for ON switches); designed switch direction (-1 OFF switch, 1 ON switch): -1; higher = weaker reporter binding
Conditions: FMN input: 0 or 200 uM; Eterna round: R93 (includes R88 designs)
Consider the following sequences; for each one, report its apparent KD of MS2 coat protein.
Don't forget the unit after the value.

# primary.sequence, apparent KD of MS2 coat protein
data = [
    ("AGGAAACAUGAGGAUCACCCAUGUGAGGAUAUACAAAAGAAAAGAAAAGAAAGAAGAAGUAGAAGGCACAAGAA [Thesh]", "29.5 nM"),
    ("AGUAGUACAGGAUAUACAUGAGGAUCACCCAUGUGAAAAUUAAGUGGCGUACCACAAAGUAGAAGGGUACUACA [Mat - Exclusion 3 - JL mod - D36]", "148 nM"),
    ("AACAGUACAGGAUAUACAUGAGGAUCACCCAUGUGGAAAUUAAGUGGCGUACCACAAAGUAGAAGGGUACUGGA [Moding Maslow revisited (73)]", "100 nM"),
]

Please find the next sequence below.
# get_value(readout='apparent KD of MS2 coat protein', item= AGUUGGCGAGGAUAUACAUGAGGAUCACCCAUGUGAAAGAAAAAAGUGAGAAAGAAAAGUAGAAGGCGCUGACA [73%, Moding Norbert Elias, 2] ) 181 nM

###

Test system: K4 kissing-loop RNA reporter;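 note: bound reporter read as fluorescence of individual clusters on recovered sequencing chips by microscopy, with normalized cluster intensities fitted with a binding model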
Experiment: apparent KD of K4 kissing-loop reporter; higher = weaker reporter binding
Conditions: Eterna round: R107; input ligand: theophylline 20 uM
observed.property: apparent KD of K4 kissing-loop reporter (nM)
Answers are plain numbers, in nM.

Please look at the items below and tell me apparent KD of K4 kissing-loop reporter for each one, in order.
1. GACGGGCAGUGAUGUUGCCGGUCUCUUGGACGAGGACCGGUACGGCCGCCACUCGAUCUGAUGCGGGAAUUGCAUCUUUUAAUAA [Raorbirabe]
2. GGUCGAGUGAUGUUCGAUGUUAUGCAUUCAGAGGAUAUAGGAUUGGCUAGAAGGCUGAAUCGAUCUUCGAGUGAUGUUCGAGGAU [Same State FMN A GF 8]
3. AGUGAUGUUUCUUUUAAGAGUGAUGUUUUUCGAGGACCGGUACGGCCGCCACUCGAGUGAUGAGUGCGUCGUUGUGGUGAUUAGU [#13 K4 Tryptophan A Exclusion]
4. CGUGCCCGGCCGGAUACCAGUGACCCGCUGGGAACCGCGGGCCCAGAGUGAUGUUCGGGACACCCUUGGCAGCCGCCUGGGCUGC [#2 Same State - Theophylline B Attempt #14 (HarryS)]
5. UGAUAGGACAGAAGGAGCGGAAGUGAUGUUUCCAAAAGGUAAAGGUGUCAAAAGACACCCUUCCAGGUAGGUCGCUGUCCUAUCU [ArgBX 12 #Palindromic #SwitchBubble #StaticStem]
6. AUGGGUUUGGGAGGAUAUCCUUCCCACGUCGAAGUACCGUGCUUGAUGGAGUGAUGUUCGAUCAGAGGAGAAGGCCCGGAUUUAU [Same State FMN B GF21]

[194, 101, 379, 375, 126, 806]

Please look at the items below and tell me apparent KD of K4 kissing-loop reporter for each one, in order.
1. GGUAGCGCUAGAGAUACCAGUCAUAUCGCUCUGGAGUGAUGUUCCGGAACGUGCGGAGAAGACCCUUGGCAGCUCAUGACGGUGU [Exclusion Theophylline B GF 4]
2. ACUACGAAGACGGCCGCCACUGAUAUUCGUAGAUCCAUCAUUACAUGAGUGAUGUUCAUGUAUAUCAGGACCGGGUCAAGAUGGU [KL-XTryp-B17 #analogue]
3. GGUAGCAUGGCGGCCGCCACUGAGCAAGUGAUGUUUGCCUCCCUACCCUAGUGUCGAGAGUAUAUCAGGACCGGGCCAUGCUACC
4. GGGCGGCAGACGGCCGCCACUCAUAGCAGCCAGUGAGUGAUGUUCGUGGCGGAGUGAUGUUCCUAGAGGACCGGGUUUGUUGUUC [Same State Tryptophan B GF 19]
5. ACCUGUGACUGAAGGAGCGUCUACUCCAGAGGAUGGAGUGAUGUUCCACUUUAAUGGAGUGGACAGGUAGGUCGCAGUCAUAGGA [Arg B SS t6]
6. UUGCAAAAGUCGGCCGCCACUCCGGGCCCUAUAAAUGGGCGCAGUGAUGUUGCGGCUAGGCCUCUGAGGACCGGGACUUUGUAGC [Aenonlebe]
7. ACGUAGUUCUAGGAUACCAGCCAAGAUGCCAGGACAAAAGUCCUGGCAGCCAGUGAUGUUGGCCCUUGGCAGCCUAGAACUACGA [Omei KL Theo B Exc B v9]

1: 281; 2: 162; 3: 164; 4: 471; 5: 88.7; 6: 111; 7: 121

# get_value(readout='apparent KD of K4 kissing-loop reporter', item= GGUCCGGGCUCGGCCGCCACUCCCUCCUGCCGUAAGGUGGGAUACCGAGUGAUGUUCGGUUGGAGGAGGACCGGGAGCCCGGACC [#2 Exclusion - Tryptophan B Attempt #15 (HarryS)] ) 105

Reference for the values: the supplement of paper PMC9170038
